Entries annotated with measured protein stability index
B1: TRIM39 (parent)
chain: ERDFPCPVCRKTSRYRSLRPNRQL

Variants of: B1
experiment: protein stability index of a GFP-peptide fusion (GPS, HEK-293T) (PSI 1-6); higher = more stable;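 note: lentivirally expressed fusions sorted by FACS into six bins by GFP to DsRed ratio, PSI derived from sequencing read proportions per bin multiplied by bin number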
condition-info: c terminus: a fixed tail appended
The answer should be written as a number, with no unit following it.

Below are worked cases with known answers.
• K11V = 1.63
• C9A = 3.79
• P7T = 1.85
• P20Q = 2.17
• V8R = 3.23
• S17L = 1.69
• L24P = 3.2
• Q23G = 2.46
• Y15H = 2.68
• S13E = 2.21

Q: # input variant: D3S ; wanted: its protein stability index
Ans: 2.64

Q: # input variant: R16N ; wanted: its protein stability index
Ans: 2.23

Q: # input variant: S17P ; wanted: its protein stability index
Ans: 2.71

Where these numbers come from: the supplement of paper PMC10567573
